B1: Unconventional myosin-Ie, residues 1051 to 1108; numbered along this chain, Q12965 (parent)
chain: PQVPQCKALYAYDAQDTDELSFNANDIIDIIKEDPSGWWTGRLRGKQGLFPNNYVTKI

- Variants of: B1
- ASSAY COMMENT: abundance fitness (aPCA) (normalised: wild type 0, dead -1); higher = more abundant; growth selection in yeast, the domain comes from the species named
- STATED CONDITIONS: Homo sapiens
Binary call on abundance fitness: yes (1) from -0.2 upward, no (0) beneath that.

| VAR | LABEL CLASS |
| --- | --- |
| E33S | no (0) |
| L49A | no (0) |
| Q15P | no (0) |
| P1K | yes (1) |
| L9K | yes (1) |
| F22R | no (0) |
| L49W | yes (1) |
| E33G | no (0) |
| A14W | no (0) |
| Y12T | no (0) |
| E19S | yes (1) |
| K46H | yes (1) |
| L49C | yes (1) |
| A14N | no (0) |
| G41A | no (0) |
| R44H | no (0) |
| G48C | no (0) |
| P35H | no (0) |
| P51F | no (0) |
| P35C | yes (1) |
| K7P | no (0) |
| N52G | yes (1) |
| K46P | no (0) |
| W39N | no (0) |
| Q15D | yes (1) |
| Y10V | yes (1) |
| D18G | yes (1) |
| K57G | no (0) |
| G37K | no (0) |
| K46Y | no (0) |
| R42I | no (0) |
| Y12I | no (0) |
| K46S | yes (1) |
| N25I | no (0) |
| Q47H | yes (1) |
| C6W | no (0) |
| E33V | no (0) |
| A24C | no (0) |
| S21K | no (0) |
| L43E | no (0) |
| I27T | no (0) |
| R42H | yes (1) |
| I31C | yes (1) |
| N53D | yes (1) |
| K7E | no (0) |
| A8T | no (0) |
| N52W | yes (1) |
| L20G | no (0) |
| I58H | no (0) |
| Q15I | yes (1) |
| W39C | no (0) |
| G45C | no (0) |
| T40Q | yes (1) |
| D16I | no (0) |
| I27G | no (0) |
| Q15M | yes (1) |
| K57D | no (0) |
| T56V | yes (1) |
| C6P | no (0) |
| A8V | no (0) |
| K32M | yes (1) |
| F22V | no (0) |
| T40L | yes (1) |
| N23E | yes (1) |
| F22D | no (0) |
| W39Y | yes (1) |
| Q5K | yes (1) |
| E33M | yes (1) |
| A14L | no (0) |
| S36Q | yes (1) |
| D18P | yes (1) |
| T17K | yes (1) |
| L20S | no (0) |
| Q2N | yes (1) |
| F50T | no (0) |
| K7Y | yes (1) |
| C6A | yes (1) |
| K32V | yes (1) |
| A11P | yes (1) |
